# TARGET OF ASSAY: Integrin alpha-V/beta-3 (Homo sapiens, UniProt P05106+P06756)
# Sequence (P05106 27-788 limits assumed, one chain of several): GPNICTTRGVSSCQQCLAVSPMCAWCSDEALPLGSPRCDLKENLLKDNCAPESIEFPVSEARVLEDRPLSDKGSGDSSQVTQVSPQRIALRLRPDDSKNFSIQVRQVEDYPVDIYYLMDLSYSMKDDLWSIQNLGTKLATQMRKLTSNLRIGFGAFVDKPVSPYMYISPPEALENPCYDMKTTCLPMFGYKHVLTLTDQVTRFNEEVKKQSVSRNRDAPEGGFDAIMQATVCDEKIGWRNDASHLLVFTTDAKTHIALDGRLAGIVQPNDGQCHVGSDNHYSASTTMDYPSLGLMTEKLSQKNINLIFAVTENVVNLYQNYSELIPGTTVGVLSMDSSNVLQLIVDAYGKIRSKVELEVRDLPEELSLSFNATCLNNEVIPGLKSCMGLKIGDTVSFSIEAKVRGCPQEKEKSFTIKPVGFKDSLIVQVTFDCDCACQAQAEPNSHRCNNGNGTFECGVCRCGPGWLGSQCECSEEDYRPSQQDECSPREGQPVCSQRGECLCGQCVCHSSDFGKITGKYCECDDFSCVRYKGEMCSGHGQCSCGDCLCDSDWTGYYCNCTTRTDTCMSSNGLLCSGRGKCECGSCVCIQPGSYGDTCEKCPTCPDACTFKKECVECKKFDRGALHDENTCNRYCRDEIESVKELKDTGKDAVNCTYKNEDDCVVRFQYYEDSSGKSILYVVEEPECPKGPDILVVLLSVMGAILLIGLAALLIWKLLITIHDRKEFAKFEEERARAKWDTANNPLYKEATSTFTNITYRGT
# ASSAY SUMMARY: Displacement of [125I]echistatin from integrin […] after 3 hrs by gamma counter
# Assay type: protein-complex assay
pIC50: −log10 of the molar value.
Please enter met where pIC50 is greater than or equal to 8, and not met where it is lower.

Examples with answers:
>  <TEST SMILES>
CC[C@@]1(O)C(=O)OCc2c1cc1n(c2=O)Cc2cc3cc(OC(=O)N4CCN(C(=O)c5ccc(COC(=O)N[C@@H](CCC(=O)N6CCN(c7cccc(NC8=NCCCN8)c7)CC6)C(=O)O)cc5)CC4)ccc3nc2-1

>  <CLASS LABEL>
met

$$$$
>  <TEST SMILES>
CCc1c2c(nc3ccc(OC(=O)N4CCN(C(=O)c5ccc(COC(=O)N[C@@H](CCC(=O)N6CCN(c7cccc(NC8=NCCCN8)c7)CC6)C(=O)O)cc5)CC4)cc13)-c1cc3c(c(=O)n1C2)COC(=O)[C@]3(O)CC.Cl

>  <CLASS LABEL>
met

$$$$
>  <TEST SMILES>
CC[C@@]1(O)C(=O)OCc2c1cc1n(c2=O)Cc2c-1nc1ccc(OC(=O)N3CCN(C(=O)c4ccc(COC(=O)N[C@@H](CCC(=O)N5CCN(c6cccc(NC7=NCCCN7)c6)CC5)C(=O)O)cc4)CC3)cc1c2/C=N/OC(C)(C)C

>  <CLASS LABEL>
met

$$$$
>  <TEST SMILES>
COC(=O)c1ccc(CNC(=O)N[C@@H](CCC(=O)N2CCN(c3cccc(N=C4NCCCN4)c3)CC2)C(=O)O)cc1

>  <CLASS LABEL>
not met

$$$$
>  <TEST SMILES>
O=C(N[C@@H](CCC(=O)N1CCN(c2cccc(N=C3NCCCN3)c2)CC1)C(=O)O)OCc1ccc(C(=O)O)cc1

>  <CLASS LABEL>
met

$$$$
>  <TEST SMILES>
O=C(N[C@@H](CCC(=O)N1CCN(c2cccc(NC3=NCCCN3)c2)CC1)C(=O)O)OCc1ccccc1

>  <CLASS LABEL>
met

$$$$
>  <TEST SMILES>
N[C@@H](CCC(=O)N1CCN(c2cccc(NC3=NCCCN3)c2)CC1)C(=O)O

>  <CLASS LABEL>
not met

$$$$
>  <TEST SMILES>
COC(=O)c1ccc(COC(=O)N[C@@H](CCC(=O)N2CCN(c3cccc(NC4=NCCCN4)c3)CC2)C(=O)O)cc1

>  <CLASS LABEL>
met

$$$$

Next, consider the following molecule.
Hello, I need to know if `CC[C@@]1(O)C(=O)OCc2c1cc1n(c2=O)Cc2cc3c(CN(C)C)c(OC(=O)N4CCN(C(=O)c5ccc(COC(=O)N[C@@H](CCC(=O)N6CCN(c7cccc(NC8=NCCCN8)c7)CC6)C(=O)O)cc5)CC4)ccc3nc2-1` has measured pIC50 not below 8. Thanks! met

----------
# TARGET OF ASSAY: Integrin alpha-V/beta-3 (Homo sapiens, UniProt P05106+P06756)
# ASSAY SUMMARY: Inhibition of vitronectin binding to human alphaVbeta3 integrin over expressed in A2780 cells
# Type: cell-based
Entries annotated with measured IC50
Hi! Could you send only the number? It should be in nM, unit omitted.

Given the molecule `CCc1c2c(nc3ccc(OC(=O)N4CCN(C(=O)c5ccc(COC(=O)N[C@@H](CCC(=O)N6CCN(c7cccc(NC8=NCCCN8)c7)CC6)C(=O)O)cc5)CC4)cc13)-c1cc3c(c(=O)n1C2)COC(=O)[C@]3(O)CC.Cl` , what is its reported IC50? 89

Another molecule: `O=C(N[C@@H](CCC(=O)N1CCN(c2cccc(N=C3NCCCN3)c2)CC1)C(=O)O)OCc1ccc(C(=O)O)cc1` 17

Another molecule: `CC[C@@]1(O)C(=O)OCc2c1cc1n(c2=O)Cc2cc3c(CN(C)C)c(OC(=O)N4CCN(C(=O)c5ccc(COC(=O)N[C@@H](CCC(=O)N6CCN(c7cccc(NC8=NCCCN8)c7)CC6)C(=O)O)cc5)CC4)ccc3nc2-1` 1000

Another molecule: `CC[C@@]1(O)C(=O)OCc2c1cc1n(c2=O)Cc2cc3cc(OC(=O)N4CCN(C(=O)c5ccc(COC(=O)N[C@@H](CCC(=O)N6CCN(c7cccc(NC8=NCCCN8)c7)CC6)C(=O)O)cc5)CC4)ccc3nc2-1` 730

Another molecule: `CC[C@@]1(O)C(=O)OCc2c1cc1n(c2=O)Cc2c-1nc1ccc(OC(=O)N3CCN(C(=O)c4ccc(COC(=O)N[C@@H](CCC(=O)N5CCN(c6cccc(NC7=NCCCN7)c6)CC5)C(=O)O)cc4)CC3)cc1c2/C=N/OC(C)(C)C` 670

----------
# TARGET OF ASSAY: Integrin alpha-V/beta-3 (Homo sapiens, UniProt P05106+P06756)
# ASSAY SUMMARY: Inhibition of vitronectin binding to human alphaVbeta3 integrin expressed in PC3 cells
# Format: cell-based, PC-3
pIC50: −log10 of the molar value.
Please enter 1 where pIC50 is greater than or equal to 7, and 0 where it is lower.

Examples with answers:
>  <TEST SMILES>
CC[C@@]1(O)C(=O)OCc2c1cc1n(c2=O)Cc2cc3cc(OC(=O)N4CCN(C(=O)c5ccc(COC(=O)N[C@@H](CCC(=O)N6CCN(c7cccc(NC8=NCCCN8)c7)CC6)C(=O)O)cc5)CC4)ccc3nc2-1

>  <TARGET OF ASSAY>
Integrin alpha-V/beta-3 (Homo sapiens, UniProt P05106+P06756)

>  <CLASS LABEL>
0

$$$$
>  <TEST SMILES>
CCc1c2c(nc3ccc(OC(=O)N4CCN(C(=O)c5ccc(COC(=O)N[C@@H](CCC(=O)N6CCN(c7cccc(NC8=NCCCN8)c7)CC6)C(=O)O)cc5)CC4)cc13)-c1cc3c(c(=O)n1C2)COC(=O)[C@]3(O)CC.Cl

>  <TARGET OF ASSAY>
Integrin alpha-V/beta-3 (Homo sapiens, UniProt P05106+P06756)

>  <CLASS LABEL>
1

$$$$
>  <TEST SMILES>
O=C(N[C@@H](CCC(=O)N1CCN(c2cccc(N=C3NCCCN3)c2)CC1)C(=O)O)OCc1ccc(C(=O)O)cc1

>  <TARGET OF ASSAY>
Integrin alpha-V/beta-3 (Homo sapiens, UniProt P05106+P06756)

>  <CLASS LABEL>
1

$$$$

Next, consider the following compound.
Hello, I need to know if `CC[C@@]1(O)C(=O)OCc2c1cc1n(c2=O)Cc2cc3c(CN(C)C)c(OC(=O)N4CCN(C(=O)c5ccc(COC(=O)N[C@@H](CCC(=O)N6CCN(c7cccc(NC8=NCCCN8)c7)CC6)C(=O)O)cc5)CC4)ccc3nc2-1` has measured pIC50 not below 7. Thanks! 0

----------
# ASSAY SUMMARY: Half life in rat plasma at 5 uM after 24 hrs by HPLC analysis
# Type: ADME, cell-free
MEASURED QUANTITY: half-life at 5 µM (h)
Hi! Could you send only the number? It should be in h, unit omitted.

Given the molecule `CCc1c2c(nc3ccc(OC(=O)N4CCN(C(=O)c5ccc(COC(=O)N[C@@H](CCC(=O)N6CCN(c7cccc(NC8=NCCCN8)c7)CC6)C(=O)O)cc5)CC4)cc13)-c1cc3c(c(=O)n1C2)COC(=O)[C@]3(O)CC.Cl` , what is its reported half-life at 5 µM? 13

----------
Entries annotated with measured IC50
# TARGET OF ASSAY: Integrin alpha-V/beta-5 (Homo sapiens, UniProt P06756+P18084)
# Sequence (P06756 31-889 limits assumed): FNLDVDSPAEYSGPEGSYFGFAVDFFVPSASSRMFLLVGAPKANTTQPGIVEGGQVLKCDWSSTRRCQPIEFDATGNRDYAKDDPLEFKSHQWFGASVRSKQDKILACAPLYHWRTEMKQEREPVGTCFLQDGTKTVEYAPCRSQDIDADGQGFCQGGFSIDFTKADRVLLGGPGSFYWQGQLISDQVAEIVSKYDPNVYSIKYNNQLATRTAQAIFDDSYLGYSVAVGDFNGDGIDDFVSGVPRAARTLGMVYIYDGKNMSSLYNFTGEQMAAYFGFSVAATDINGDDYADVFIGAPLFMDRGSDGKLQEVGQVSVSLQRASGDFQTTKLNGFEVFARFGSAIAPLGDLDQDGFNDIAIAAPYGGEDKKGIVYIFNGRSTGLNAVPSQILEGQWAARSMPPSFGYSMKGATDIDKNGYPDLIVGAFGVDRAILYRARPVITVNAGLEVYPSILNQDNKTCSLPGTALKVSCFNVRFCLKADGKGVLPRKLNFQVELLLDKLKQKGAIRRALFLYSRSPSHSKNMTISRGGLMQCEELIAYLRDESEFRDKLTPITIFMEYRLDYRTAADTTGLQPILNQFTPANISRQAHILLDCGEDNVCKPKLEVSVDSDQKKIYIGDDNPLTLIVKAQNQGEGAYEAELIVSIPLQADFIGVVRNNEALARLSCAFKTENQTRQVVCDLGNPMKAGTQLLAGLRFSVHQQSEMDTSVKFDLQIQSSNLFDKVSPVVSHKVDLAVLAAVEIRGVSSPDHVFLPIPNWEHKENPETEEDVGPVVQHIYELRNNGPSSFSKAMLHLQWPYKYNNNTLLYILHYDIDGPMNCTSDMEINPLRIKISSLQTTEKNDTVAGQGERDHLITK
# Sequence (P06756 891-1048 limits assumed): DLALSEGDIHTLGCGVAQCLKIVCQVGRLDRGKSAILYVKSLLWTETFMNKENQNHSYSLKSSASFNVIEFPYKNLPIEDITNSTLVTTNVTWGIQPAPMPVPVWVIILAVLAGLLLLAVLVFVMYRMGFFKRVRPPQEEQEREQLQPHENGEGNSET
# Sequence (P18084 24-799 limits assumed): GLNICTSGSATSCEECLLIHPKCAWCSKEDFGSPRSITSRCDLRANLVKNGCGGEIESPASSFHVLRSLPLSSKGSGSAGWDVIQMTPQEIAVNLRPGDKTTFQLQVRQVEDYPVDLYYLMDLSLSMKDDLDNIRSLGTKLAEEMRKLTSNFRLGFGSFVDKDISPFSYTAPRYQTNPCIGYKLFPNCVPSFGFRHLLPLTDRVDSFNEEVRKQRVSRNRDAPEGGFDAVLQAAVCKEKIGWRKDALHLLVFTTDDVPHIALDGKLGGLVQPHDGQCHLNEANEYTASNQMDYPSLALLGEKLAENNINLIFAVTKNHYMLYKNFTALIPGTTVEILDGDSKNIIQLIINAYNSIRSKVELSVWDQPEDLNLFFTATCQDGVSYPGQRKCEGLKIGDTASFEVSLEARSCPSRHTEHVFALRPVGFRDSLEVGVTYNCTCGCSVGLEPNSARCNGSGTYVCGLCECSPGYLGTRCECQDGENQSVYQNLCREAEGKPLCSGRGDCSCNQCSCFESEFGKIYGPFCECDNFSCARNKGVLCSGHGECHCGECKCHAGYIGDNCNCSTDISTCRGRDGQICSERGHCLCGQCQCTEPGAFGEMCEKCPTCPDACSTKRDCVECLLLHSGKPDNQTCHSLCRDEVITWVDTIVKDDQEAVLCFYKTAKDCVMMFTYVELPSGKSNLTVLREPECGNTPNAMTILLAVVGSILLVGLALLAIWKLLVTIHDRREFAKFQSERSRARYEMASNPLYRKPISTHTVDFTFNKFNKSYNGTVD
# ASSAY SUMMARY: Displacement of [125I]echistatin from integrin […] after 3 hrs by gamma counter
Please make sure the unit comes right after the number.

>  <TEST SMILES>
O=C(N[C@@H](CCC(=O)N1CCN(c2cccc(N=C3NCCCN3)c2)CC1)C(=O)O)OCc1ccc(C(=O)O)cc1

>  <IC50>
2.2 nM

$$$$
>  <TEST SMILES>
CCc1c2c(nc3ccc(OC(=O)N4CCN(C(=O)c5ccc(COC(=O)N[C@@H](CCC(=O)N6CCN(c7cccc(NC8=NCCCN8)c7)CC6)C(=O)O)cc5)CC4)cc13)-c1cc3c(c(=O)n1C2)COC(=O)[C@]3(O)CC.Cl

>  <IC50>
1 nM

$$$$
>  <TEST SMILES>
CC[C@@]1(O)C(=O)OCc2c1cc1n(c2=O)Cc2c-1nc1ccc(OC(=O)N3CCN(C(=O)c4ccc(COC(=O)N[C@@H](CCC(=O)N5CCN(c6cccc(NC7=NCCCN7)c6)CC5)C(=O)O)cc4)CC3)cc1c2/C=N/OC(C)(C)C

>  <IC50>
0.76 nM

$$$$
>  <TEST SMILES>
CC[C@@]1(O)C(=O)OCc2c1cc1n(c2=O)Cc2cc3c(CN(C)C)c(OC(=O)N4CCN(C(=O)c5ccc(COC(=O)N[C@@H](CCC(=O)N6CCN(c7cccc(NC8=NCCCN8)c7)CC6)C(=O)O)cc5)CC4)ccc3nc2-1

>  <IC50>
0.73 nM

$$$$

Given the compound `CC[C@@]1(O)C(=O)OCc2c1cc1n(c2=O)Cc2cc3cc(OC(=O)N4CCN(C(=O)c5ccc(COC(=O)N[C@@H](CCC(=O)N6CCN(c7cccc(NC8=NCCCN8)c7)CC6)C(=O)O)cc5)CC4)ccc3nc2-1` , what is its reported IC50? 2.05 nM
